assay: Acute toxicity, 24 hours mortality after i.p. administration to mice; settings: mouse, in vivo, ip, female mice, 20 g
Listed here: items and their measured LD50 at 24 h.
Give the number; mg/kg is assumed, so skip it.

Please review the entries below; each comes with its answer.
1. CCN(CC)CCCNc1nc(-c2c(C)cc(C)cc2C)cs1 [SR 44347 A] : 60
2. CCN(CC)CCCNc1nc(C)c(-c2ccccc2)s1 [SR 44373 A] : 75
3. CCN(CC)CCNc1nc(-c2c(C)cc(C)cc2C)cs1 [SR 44372 A] : 75
4. c1ccc(-c2csc(NCCN3CCOCC3)n2)cc1 [SR 44244 A] : 250
5. CN(C)CCCNc1nc(-c2ccccc2)cs1 [SR 44345 A] : 200
6. c1ccc(-c2csc(NCCCN3CCOCC3)n2)cc1 [SR 44284 A] : 450

Fill in reported LD50 at 24 h for this entry: CCN(CC)CCCNc1nc(-c2ccccc2)cs1 [SR 44374 A]
150

Fill in reported LD50 at 24 h for this entry: CCN(CC)CCNc1nc(-c2ccccc2)cs1 [SR 44286 A]
200
